Numbers sourced from ChEMBL document CHEMBL5154919.

biological target: CYP3A4 (Homo sapiens); test: Inhibition of CYP3A4 in human liver microsomes using Midazolam as substrate at 10 uM in presence of NADPH incubated for 10 mins; type: ADME, Microsome; conditions: probe midazolam
Sequence (P08684 whole entry): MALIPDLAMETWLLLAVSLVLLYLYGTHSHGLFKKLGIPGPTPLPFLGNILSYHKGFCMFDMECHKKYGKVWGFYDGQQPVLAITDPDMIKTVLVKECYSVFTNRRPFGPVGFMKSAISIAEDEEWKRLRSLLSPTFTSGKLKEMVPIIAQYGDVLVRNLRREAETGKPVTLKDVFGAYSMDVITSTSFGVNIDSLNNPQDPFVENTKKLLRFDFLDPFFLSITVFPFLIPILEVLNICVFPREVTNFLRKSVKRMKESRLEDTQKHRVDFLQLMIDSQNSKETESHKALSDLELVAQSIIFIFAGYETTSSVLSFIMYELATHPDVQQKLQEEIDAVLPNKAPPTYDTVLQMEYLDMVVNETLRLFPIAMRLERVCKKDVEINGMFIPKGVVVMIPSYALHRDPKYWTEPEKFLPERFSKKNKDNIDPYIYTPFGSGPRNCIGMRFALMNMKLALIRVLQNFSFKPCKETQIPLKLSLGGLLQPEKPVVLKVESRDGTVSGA
Measured property: inhibition at 10 min, 10 µM (%)
Supply the numeric figure in %, leaving out any unit text.

CC(C)(Oc1cccc(N2CCC[C@@H](C(=O)N(Cc3ccc(-c4cnc5[nH]ccc5c4)cc3)C3CC3)C2)c1)C(=O)N1CCNCC1.Cl : 97

# input What measured inhibition at 10 min, 10 µM goes with "CC(C)(Oc1cccc(N2CCC[C@@H](C(=O)N(Cc3ccc(-c4cn[nH]c4)cc3)C3CC3)C2)c1)C(=O)N1CCNCC1" ?
# output 96
